# System: Neisseria gonorrhea strain 181
# assay overview: MIC against Neisseria gonorrhea strain 181
# Format: cell-based
For each record, check the reported MIC: if it is below 0.2 µg/mL write yes (1), else write no (0).

Say whether its MIC is strictly beneath 0.2 µg/mL. Entry: COc1c(Cl)cc(-c2nnc(NC(=O)c3ccc(SC(F)(F)F)cc3)o2)cc1Cl
no (0)

Say whether its MIC is strictly beneath 0.2 µg/mL. Entry: O=C(Nc1nnc(-c2ccc(F)cc2F)o1)c1ccc(SC(F)(F)F)cc1
no (0)

Say whether its MIC is strictly beneath 0.2 µg/mL. Entry: CN(C)[C@@H]1C(O)=C(C(N)=O)C(=O)[C@@]2(O)C(O)=C3C(=O)c4c(O)cccc4[C@@](C)(O)[C@H]3C[C@@H]12 [Tetracycline, reference compound]
no (0)

Say whether its MIC is strictly beneath 0.2 µg/mL. Entry: O=C(Nc1nnc(-c2cccc(Cl)c2)o1)c1ccc(SC(F)(F)F)cc1
no (0)

Say whether its MIC is strictly beneath 0.2 µg/mL. Entry: O=C(Nc1nnc(-c2cccc(F)c2)o1)c1ccc(OC(F)(F)F)cc1
yes (1)

Say whether its MIC is strictly beneath 0.2 µg/mL. Entry: O=C(Nc1nnc(-c2cccs2)o1)c1ccc(SC(F)(F)F)cc1
yes (1)

Say whether its MIC is strictly beneath 0.2 µg/mL. Entry: O=C(Nc1nnc(-c2cccc(F)c2)o1)c1ccc(SC(F)(F)F)cc1
no (0)

Say whether its MIC is strictly beneath 0.2 µg/mL. Entry: O=C(Nc1nnc(-c2ccc(Cl)cc2Cl)o1)c1ccc(SC(F)(F)F)cc1
no (0)

Say whether its MIC is strictly beneath 0.2 µg/mL. Entry: O=C(Nc1nnc(-c2cccc(C(F)(F)F)c2)o1)c1ccc(SC(F)(F)F)cc1
no (0)

Say whether its MIC is strictly beneath 0.2 µg/mL. Entry: O=C(Nc1nnc(-c2cc(Cl)cc(Cl)c2)o1)c1ccc(SC(F)(F)F)cc1
yes (1)

Say whether its MIC is strictly beneath 0.2 µg/mL. Entry: O=C(Nc1nnc(-c2ccc(C(F)(F)F)cc2)o1)c1ccc(SC(F)(F)F)cc1
no (0)

Say whether its MIC is strictly beneath 0.2 µg/mL. Entry: O=C(Nc1nnc(-c2cccc(Cl)c2)o1)c1ccc(SC(F)(F)F)nc1
yes (1)

Say whether its MIC is strictly beneath 0.2 µg/mL. Entry: CC[C@H]1OC(=O)[C@H](C)[C@@H](O[C@H]2C[C@@](C)(OC)[C@@H](O)[C@H](C)O2)[C@H](C)[C@@H](O[C@@H]2O[C@H](C)C[C@H](N(C)C)[C@H]2O)[C@](C)(O)C[C@@H](C)CN(C)[C@H](C)[C@@H](O)[C@]1(C)O [Azithromycin, reference compound]
no (0)

Say whether its MIC is strictly beneath 0.2 µg/mL. Entry: O=C(Nc1nnc(-c2ccc(Cl)s2)o1)c1ccc(SC(F)(F)F)cc1
no (0)

Say whether its MIC is strictly beneath 0.2 µg/mL. Entry: O=C(Nc1nnc(-c2ccc(Cl)s2)o1)c1ccc(OC(F)(F)F)cc1
yes (1)

Say whether its MIC is strictly beneath 0.2 µg/mL. Entry: O=C(Nc1nnc(-c2cccc(Cl)c2)o1)c1ccc(S(F)(F)(F)(F)F)cc1
no (0)

Say whether its MIC is strictly beneath 0.2 µg/mL. Entry: O=C(Nc1nnc(-c2cccc(Br)c2)o1)c1ccc(SC(F)(F)F)cc1
no (0)
